Source of measurements: a melting point compilation (Tetko et al.; mined from patent text by program, amines drawn as free bases though some values may be those of a salt)

Quantity name: melting point

CCC(CC)OC(=O)c1ccc(C(=O)NS(=O)(=O)c2ccccc2)cn1    182 to 183 °C
CCN(CC)Cc1cc(/C=C/C(=O)Nc2ccccc2C(=O)O)ccc1OC    202 to 205 °C
C=CCOc1nc(N(CC)Cc2cc(Br)ccc2OCc2ccccc2)ccc1C(=O)O    129 to 131 °C
CCCn1nc(C(N)=O)cc1CC(C)C    141 to 142 °C
CNc1ccc(C#Cc2cccc(-c3nc(NC)nc4cc(OC)c(OC)cc34)c2)cn1    136 to 138 °C
CC(CO)c1ccc2oc3nc(N)c(C(=O)O)cc3c(=O)c2c1 (stereo not given)    > 300 °C
Cc1ccc(-c2nccc3c(CC(=O)O)cccc23)cc1    223 to 224 °C
C#CCN1CSCC1=O    29 to 31 °C

What does the data say about its melting point? Entry: O=C(C=C(c1ccccc1)N1CNc2cccnc21)OCCC(OCCCc1ccc(Cl)cc1)C(=O)O (stereo not given) 95 °C

What does the data say about its melting point? Entry: Cc1cnnc2c1C(=O)CC(c1cc(Cl)ccc1F)C2 (stereo not given) 124 to 125 °C

What does the data say about its melting point? Entry: "CCCCOc1c(CNC(=O)OC(C)(C)C)n(CC2CC2)c(=O)c2ccc(C(=O)OC)cc12" 139 to 140 °C

What does the data say about its melting point? Entry: "COC(=O)NN=C1CCCCC1=Cc1ccc(Cl)cc1" 160 to 162 °C

What does the data say about its melting point? Entry: C#CCOC(C(=O)NCCc1ccc(O)c(OC)c1)c1ccc(Cl)cc1 (stereo not given) 93 to 95 °C

What does the data say about its melting point? Entry: "O=[N+]([O-])c1ccc(Oc2cncc(Cl)c2)cc1" 80 to 82 °C

What does the data say about its melting point? Entry: "CCOC(=O)C(=CNC1CC1)C(=O)c1cc(F)c(Cl)nc1Cl" 129 to 130 °C
